All values here come from PubChem BioAssay (NCATS).

Experiment: qHTS of pediatric cancer cell lines to identify multiple opportunities for drug repurposing: Primary screen for SJ-GBM2 cells (AID 1347091);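 also: plate controls were DMSO neutral control for no effect and bortezomib for full effect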
Settings: SJ-GBM2 viability, CellTiter-Glo luminescence, 48 h; series mostly up to 46 µM
Results filed as inconclusive are left out. The source made the active and inactive calls. Calls follow the shape of the dose curve; as a rule, active = well fitted cell-killing curve with a large enough effect; inconclusive = small, poorly fitted or top-dose-only effect; inactive = no such curve, though single readings can be large or run the other way.

{"compound": "O=C(O)c1ccccc1NCCc1ccccc1", "outcome": "inactive"}
{"compound": "Nc1ccccc1N", "outcome": "inactive"}
{"compound": "O=C(O)c1c(O)c(-c2ccccc2)nc2ccccc12", "outcome": "inactive"}
{"compound": "CCOCCOC(=O)/C=C/c1ccc(OC)cc1", "outcome": "inactive"}
{"compound": "CCC(C(=O)O)c1ccc(N2Cc3ccccc3C2=O)cc1 (stereo not given)", "outcome": "inactive"}

---

System: KB-3-1
Test: Cytotoxic Profiling of Annotated Libraries Using Quantitative High-Throughput Screening (AID 1296008); also: nearly all actives have a fitted effect of over 60% in size
Conditions: Five cell lines viability, CellTiter-Glo ATP luminescence, 48-72 h
Records with an inconclusive call do not appear. Calls of active or inactive are those of the source. The call rests on the fitted dose curve; in most records, active means well fitted inhibition curve with a large enough effect; inconclusive means small, poorly fitted or top-dose-only effect; inactive means flat fitted curve, though single readings scatter.
Labels: Y (active), N (inactive)

{"compound": "NC1CCC(Nc2cc(-c3cccc(NCc4cccc(F)c4)n3)c(Cl)cn2)CC1 (configuration not stated)", "study_target": "KB-3-1", "class_name": "Y"}
{"compound": "COc1ccc(N2CCOCC2)c2sc(NC(=O)N3CCC(C)(O)CC3)nc12", "study_target": "KB-3-1", "class_name": "N"}
{"compound": "COc1c(Nc2ncc(Cl)c(N[C@H]3[C@@H](C(N)=O)[C@@H]4C=C[C@H]3C4)n2)ccc2c1CC[C@@H](N1CCOCC1)CC2", "study_target": "KB-3-1", "class_name": "Y"}
{"compound": "COc1ccc(-c2ccc3c(N4CCOCC4)nc(N4CC(C)OC(C)C4)nc3n2)cc1CO (configuration not stated)", "study_target": "KB-3-1", "class_name": "Y"}
{"compound": "COC(=O)N1CCC(n2ncc3c(N4CCOCC4)nc(-c4ccc(NC(=O)Nc5ccc(CO)cc5)cc4)nc32)CC1", "study_target": "KB-3-1", "class_name": "Y"}
{"compound": "CC(=O)O[C@H]1CC[C@@]2(C)C(CC[C@@H](C)[C@]23Cc2c(O)cc4c(c2O3)CN([C@@H](CCC(=O)O)C(=O)O)C4=O)C1(C)C (some centres not stated)", "study_target": "KB-3-1", "class_name": "N"}
{"compound": "CC(C)(O[C@@H]1O[C@H](CO)[C@@H](O)[C@H](O)[C@H]1O)C(OC(=O)/C=C\\c1ccc(O)cc1)C(=O)OCc1ccc(O[C@@H]2O[C@H](CO)[C@@H](O)[C@H](O)[C@H]2O)cc1 (some centres not stated)", "study_target": "KB-3-1", "class_name": "N"}

---

Tested on: PA-1
Test: Primary qHTS to identify gynecologic anti-cancer compounds using libraries of approved drugs and bioactive compounds (AID 1345084); also: nearly all actives have a fitted effect of over 55% in size; as to activity change, negative = cytotoxicity: % is scaled to controls: 0 for no effect and ±100 for the full control effect
Conditions: Gynecologic cancer cell panel viability, ATPlite luminescence, 48 h; series mostly up to 57.5 µM
Records with an inconclusive call do not appear. Calls of active or inactive are those of the source. Calls follow the shape of the dose curve; as a rule, active = well fitted cell-killing curve with a large enough effect; inconclusive = small, poorly fitted or top-dose-only effect, or effect the other way; inactive = flat fitted curve, though single readings scatter. *1 amine or outer side, *2 acyl side, *3 side chain or, on linkers, in order; H or OH if unused. Where a SMILES comes first, the peptide text is derived from it. [ ]: non-standard residue; d: D form. X4 = CC(C)=CCc1cc(C(O)C(N[*:1])C(=O)[*:2])ccc1O

{"molecule": "CC(C)=CCc1cc(C(O)C2NC(=O)CNC(=O)C(Cc3c[nH]c4ccccc34)NC(=O)C3CCCN3C(=O)CNC(=O)C(C(C)C)NC(=O)CNC2=O)ccc1O (configuration not stated) (cyclo(G[X4]GVGPW); configuration not given here)", "study_target": "PA-1", "activity change, negative = cytotoxicity": "-1.16% [at 11.6 µM] (inactive)"}
{"molecule": "CC1(C)CC[C@]2(C(=O)O[C@@H]3O[C@H](CO)[C@@H](O)[C@H](O)[C@H]3O)CC[C@]3(C)C(=CCC4[C@@]5(C)CC[C@H](O[C@@H]6O[C@H](C(=O)O)[C@@H](O)[C@H](O)[C@H]6O)[C@@](C)(CO)C5CC[C@]43C)C2C1 (some centres not stated)", "study_target": "PA-1", "activity change, negative = cytotoxicity": "2.88% [at 11.6 µM] (inactive)"}

---

Test: Primary fluorescence-based thiol-reactive (MSTI) qHTS assay for identification of artifact compounds. (AID 1845221); also: nearly all actives have a fitted effect of over 65% in size
Details: MSTI thiol-reactivity probe, 1 h; series mostly up to 53.8 µM
Records with an inconclusive call do not appear. Active and inactive are the calls of the source. The call rests on the fitted dose curve; in most records, active means well fitted inhibition curve with a large enough effect; inconclusive means small, poorly fitted or top-dose-only effect; inactive means no such curve, though single readings can be large or run the other way.
Classes used: class 1 (active), class 0 (inactive)

{"compound": "C=C1C[C@@]23CCC4[C@@](C)(CCC[C@@]4(C)C(=O)OC)C2CC[C@@H]1C3 (stereo partly drawn)", "class_name": "class 0"}
{"compound": "CC(=O)OC1/C(C)=C/C(=O)C(OC(C)=O)C(C)(C)/C=C/C(C)C(=O)C2(OC(C)=O)CC(C)C(OC(=O)c3ccccc3)C12 (stereo not drawn)", "class_name": "class 0"}
{"compound": "C=C[C@H]1[C@H](O[C@@H]2O[C@H](CO)[C@@H](O)[C@H](O)[C@H]2O)OC=C(C(=O)OC)[C@H]1CCOC(=O)c1cc(O)c(O)c(O)c1", "class_name": "class 1"}
{"compound": "O=C(NCc1cccc(O)c1)Nc1nc(-c2ccncc2)cs1", "class_name": "class 0"}
{"compound": "COC(=O)C1=CO[C@@H](O)C2C(CO)=CCC12 (stereo partly drawn)", "class_name": "class 0"}
{"compound": "COC(=O)c1cc(OC)cc(OC)c1C(=O)c1c(OC)cc2c(c1O)C1CCCC(C)(O2)O1 (stereo not drawn)", "class_name": "class 0"}
{"compound": "COC(=O)C1=CO[C@@H](O[C@@H]2O[C@H](CO)[C@@H](O)[C@H](O)[C@H]2O)[C@@H]2[C@@](C)(O)[C@@H](OC(=O)/C=C/c3ccc(O)cc3)C[C@]12O", "class_name": "class 1"}
{"compound": "Cc1ccc(NC(=O)C(=O)NC2CC(C)(C)NC(C)(C)C2)cc1", "class_name": "class 0"}
{"compound": "C/C(=C\\CCC1(C)C2CCC(C2)C1(C)O)C(=O)O (stereo not drawn)", "class_name": "class 0"}
{"compound": "COc1c2c(c(C)c3c1C(=O)OC3)OC1(C)CC(O)C34OC(OC)(OC3(C)C)C(O)CC4(C)C1C2 (stereo not drawn)", "class_name": "class 0"}
{"compound": "CCCCC1CCN(CCCC(=O)c2ccccc2C)CC1", "class_name": "class 0"}
{"compound": "CCOC(=O)C(CCc1ccccc1)NC1CSC(c2cccs2)CN(CC(=O)O)C1=O (stereo not drawn)", "class_name": "class 0"}
{"compound": "CS(=O)(=O)c1ccc([C@H](CC2CCCC2)C(=O)Nc2nccs2)cc1", "class_name": "class 0"}
{"compound": "O=C(NCc1ccc(S(=O)(=O)c2cc(F)cc(F)c2)cc1)c1ccc2nccn2c1", "class_name": "class 0"}
{"compound": "O=C1CSc2ccccc2N1Cc1cccc(C(F)(F)F)c1", "class_name": "class 0"}
{"compound": "CC1CCC2(C(=O)O)CCC3(C)C(=CCC4C5(C)CCC(OC(=O)/C=C/c6ccccc6)C(C)(C)C5CCC43C)C2C1C (stereo not drawn)", "class_name": "class 0"}
{"compound": "Cc1c(C(=O)N2CCOc3ccc(-c4ccc(N)nc4)cc3C2)ccc(S(C)(=O)=O)c1F", "class_name": "class 0"}
{"compound": "C=C1C(=O)O[C@@H]2C/C(C)=C\\C(=O)/C=C(\\C)[C@@H](OC(=O)/C(C)=C\\C)[C@H](O)[C@@H]12", "class_name": "class 0"}

---

Tested on: SKOV3
Assay: Primary qHTS to identify gynecologic anti-cancer compounds using libraries of approved drugs and bioactive compounds (AID 1345084); also: nearly all actives have a fitted effect of over 55% in size
Conditions: Gynecologic cancer cell panel viability, ATPlite luminescence, 48 h; series mostly up to 57.5 µM
Records with an inconclusive call do not appear. Activity calls are given as the source filed them. The call rests on the fitted dose curve; in most records, active means well fitted cell-killing curve with a large enough effect; inconclusive means small, poorly fitted or top-dose-only effect, or effect the other way; inactive means flat fitted curve, though single readings scatter.
Classes used: active, inactive

{"compound": "OC[C@H]1O[C@@H](OC(CCCCc2ccc(O)cc2)CCc2ccc(O)cc2)[C@H](O)[C@@H](O)[C@@H]1O (some centres undefined)", "class_name": "inactive"}
{"compound": "COc1ccc(-n2[nH]c(=O)c3[nH]c4cc(Cl)ccc4c(=O)c3c2=O)c(C)c1", "class_name": "inactive"}
{"compound": "Cc1cn(C2C=CC(CO)O2)c(=O)[nH]c1=O (centres undefined)", "class_name": "inactive"}
{"compound": "COC1/C=C/C(C)(O)C(SCC(N)C(=O)O)CC(=O)OC(C)C(C)CC/C=C/1C (centres undefined)", "class_name": "inactive"}
{"compound": "C[C@H](NC(c1cccc2[nH]c(=O)c(=O)[nH]c12)P(=O)(O)O)c1ccc(Br)cc1 (some centres undefined)", "class_name": "inactive"}
{"compound": "C[C@H]1CC(=O)Nc2cccc(-c3cnn(C(C)(C)C)c3)c2N1", "class_name": "inactive"}
{"compound": "CC(C)(O[C@@H]1O[C@H](CO)[C@@H](O)[C@H](O)[C@H]1O)C(OC(=O)/C=C\\c1ccc(O)cc1)C(=O)OCc1ccc(O[C@@H]2O[C@H](CO)[C@@H](O)[C@H](O)[C@H]2O)cc1 (some centres undefined)", "class_name": "inactive"}
{"compound": "CC1(C)CC[C@]2(C(=O)O[C@@H]3O[C@H](CO)[C@@H](O)[C@H](O)[C@H]3O)CC[C@]3(C)C(=CCC4[C@@]5(C)C[C@@H](O)[C@H](O)[C@](C)(C=O)C5CC[C@]43C)[C@@H]2[C@@H]1O (some centres undefined)", "class_name": "inactive"}
{"compound": "C[C@]12C=C[C@@]3(CCC4[C@](C)(CO)CCC[C@@]4(C)C3CC1)C2 (some centres undefined)", "class_name": "inactive"}
{"compound": "C=C1CCC2C(C)(C)CCC[C@]2(C)[C@H]1C/C=C(\\CO)C(=O)C(=O)O (some centres undefined)", "class_name": "inactive"}
{"compound": "CC1OC2OC(=O)C3(C)CC4=C(CO)C5=C(CC(=O)C4(C)C(C1=O)C23)C(C)(C)OC(=O)C5 (centres undefined)", "class_name": "inactive"}
{"compound": "COC(=O)c1ccc(OC(CO)C(O)c2ccc(O)c(OC)c2)c(OC)c1 (centres undefined)", "class_name": "inactive"}
{"compound": "Cc1cnc(NC(=O)Nc2cc(Br)c(C)cc2OCC2CNCCO2)cn1 (centres undefined)", "class_name": "active"}
{"compound": "CC1(C)[C@@H](O)CC[C@]2(C)[C@H]3CC=C4[C@@H]5C[C@](C)(C(=O)O)CC[C@]5(C)CC[C@@]4(C)[C@]3(C)CC[C@@H]12", "class_name": "inactive"}
{"compound": "Fc1ccc2nc(CCC#Cc3ccccn3)cn2c1", "class_name": "inactive"}
{"compound": "COc1cc2c(c(OC)c1CC=C(C)C)C[C@H](c1ccc(O)cc1O)CO2", "class_name": "inactive"}
{"compound": "COCCOc1ccc(N2CCN(CCn3ncc4c3nc(N)n3nc(-c5ccco5)nc43)CC2)cc1", "class_name": "inactive"}
{"compound": "C[C@H](O)[C@H](O)/C=C/c1cccc(O)c1CO", "class_name": "inactive"}
{"compound": "Cc1[nH]c2ccccc2c1C1=C(NCCc2ccc(F)cc2)C(=O)N(C)C1=O", "class_name": "inactive"}
{"compound": "CCC1C(=O)OC23C=C[C@@H]4C(C(=O)O)=CO[C@H](O[C@@H]12)[C@@H]43 (some centres undefined)", "class_name": "inactive"}
{"compound": "COc1ccc(C[C@H](N)C(=O)N[C@@H]2[C@H](O)[C@H](n3cnc4c(N(C)C)ncnc43)O[C@@H]2CO)cc1", "class_name": "active"}
{"compound": "Cc1ccccc1NC(=O)Nc1ccc(CC(=O)N(C)[C@@H](CC(C)C)C(=O)NCC[C@H](NC(=O)[C@@H]2CCCN2S(=O)(=O)c2cc(Cl)cc(Cl)c2)C(=O)O)cc1", "class_name": "inactive"}
{"compound": "COC(=O)[C@H](O)[C@H]1C(C)(C)[C@H](OC(=O)C(C)C)[C@@]2(O)C(=O)[C@]1(C)C1CC[C@]3(C)C(CC(=O)O[C@H]3c3ccoc3)[C@]13O[C@@H]32 (some centres undefined)", "class_name": "inactive"}
{"compound": "CC1C=CC2CCCCC2C1CCC1CC(O)CC(=O)O1 (centres undefined)", "class_name": "inactive"}
{"compound": "N#C[C@@H]1C[C@H](F)CN1C(=O)CNC1[C@H]2CN(C(=O)c3ccc(F)cc3)C[C@@H]12 (some centres undefined)", "class_name": "inactive"}
{"compound": "COc1ccc(C2COc3cc(O)ccc3C2)c(O)c1 (centres undefined)", "class_name": "inactive"}
{"compound": "Cc1[nH]c2ccccc2c1CCNC(=O)c1ccccc1F", "class_name": "inactive"}
{"compound": "CC1CC2OC3(OC2C(C)(C)O)C1C1(C)CCC24CC25CCC(O[C@@H]2OC[C@@H](O)[C@H](O)[C@H]2O)C(C)(C)C5CC=C4C1(C)C3O (some centres undefined)", "class_name": "inactive"}
{"compound": "O=C(O[C@H]1[C@@H]2C[C@@H]3OC[C@](O)([C@@H]1Cl)[C@H]2C(O[C@@H]1O[C@H](CO)[C@@H](O)[C@H](O)[C@H]1O)O3)c1ccc(O)c(O)c1 (some centres undefined)", "class_name": "inactive"}
{"compound": "COc1ccc(C(=O)n2c(C)c(Cc3cccc(O[C@@H](C)C(=O)O)c3)c3cc(OC(F)(F)F)ccc32)cc1", "class_name": "inactive"}
{"compound": "CC1=C(CCC(C)O[C@@H]2O[C@H](CO)[C@@H](O)[C@H](O)[C@H]2O)C(C)(C)CCC1=O (some centres undefined)", "class_name": "inactive"}
{"compound": "CC(C)CC(=O)OC1OC=C(CO[C@@H]2O[C@H](CO)[C@@H](O)[C@H](O)[C@H]2O)C2CC(O)C(O)(CO)C12 (some centres undefined)", "class_name": "inactive"}
{"compound": "CC1C(=O)CC2C3CCC(C(=O)O)C12CC3(C)CO (centres undefined)", "class_name": "inactive"}
{"compound": "CC1CCC2(C=O)C(CO)=CCCC2C1(C)CC(=O)O (centres undefined)", "class_name": "inactive"}
